# Lookup of reported MRT keyed by entry
# method summary: Brain pharmacokinetics of CBD and THC after single oral dose of Cannabis sativa extract
# condition summary: male, Wistar, rat, brain, po, 30 mg/kg, MRT; Cremophor; single oral dose of extract 30 mg/kg
Quick reminder: number only, in h, skip the unit.

| compound | MRT, h |
| --- | --- |
| C=C(C)[C@@H]1CCC(C)=C[C@H]1c1c(O)cc(CCCCC)cc1O [CBD, cannabidiol] | 6.19 |

Now turn to the next compound.
Using known records, supply MRT for CCCCCc1cc(O)c2c(c1)OC(C)(C)[C@@H]1CCC(C)=C[C@@H]21 [THC, Δ-9-tetrahydrocannabinol]
5.11
